System: NOMO1
ASSAY EXPLANATION: cell viability relative to DMSO control; higher = less cytotoxic
EXPERIMENTAL CONTEXT: RPMI 5 mM glucose + 10% dialyzed FBS; 48 h; 0.000781 µM
Quick rule for you: cell viability under 90% gets true, anything else gets false.

Below 90% on cell viability? Entry "O=C(CCc1ccc(O)cc1)c1c(O)cc(O)cc1O[C@@H]1O[C@H](CO)[C@@H](O)[C@H](O)[C@H]1O"
false

Query CO[C@@H]1C(N(C)C(=O)c2ccccc2)C[C@H]2O[C@]1(C)n1c3ccccc3c3c4c(c5c6ccccc6n2c5c31)C(=O)NC4=O (stereo partly drawn) next
true

Query "CC(C)(C)NC(=O)[C@H]1CC[C@H]2[C@@H]3CC[C@H]4NC(=O)\C=C/[C@]4(C)[C@H]3CC[C@]12C" next
false

Query "O=c1[nH]cnc2c1ncn2[C@H]1CC[C@@H](CO)O1" next
true

Query "O=C(CCCCCCC(=O)Nc1ccccc1)NO" next
true
